TARGET: CHUK (human)
ASSAY_INFO: radiometric filter-binding kinase assay, Kinase HotSpot
CONDITION_PARAMETERS: compound 0.5 µM; ATP 10 µM
Parameter: residual activity. Scope: all listed entries.

MOLECULAR_STRING: O=C1NC(=O)C(c2c[nH]c3ccccc23)=C1c1c[nH]c2ccccc12
residual activity [%]: 93.4
--
MOLECULAR_STRING: O=C1Cc2c([nH]c3ccc(Br)cc23)-c2ccccc2N1
residual activity [%]: 98.6
--
MOLECULAR_STRING: Nc1nccc(-c2c(-c3ccc(F)cc3)ncn2C2CCNCC2)n1
residual activity [%]: 101
--
MOLECULAR_STRING: O=C(Nc1cccc(Nc2cc(Nc3cccc(C(F)(F)F)c3)ncn2)c1)C1CC1
residual activity [%]: 95.6
--
MOLECULAR_STRING: O=C(O)/C=C/c1cc(Br)c(Br)c(Br)c1Br
residual activity [%]: 89.5
--
MOLECULAR_STRING: CC(C)[C@H](CO)Nc1nc(Nc2cc(N)cc(Cl)c2)c2ncn(C(C)C)c2n1
residual activity [%]: 97.3
--
MOLECULAR_STRING: Oc1ccc(Nc2nc(-c3ccc(Cl)cc3)cs2)cc1
residual activity [%]: 104
--
MOLECULAR_STRING: O=C(CCCc1ccc(-c2ccccc2F)cc1)Nc1ccc(O)cc1
residual activity [%]: 97.3
--
MOLECULAR_STRING: CC(=O)O/N=C1\C(=C2\C(=O)Nc3cc(Br)ccc32)Nc2ccccc21
residual activity [%]: 98.3
--
MOLECULAR_STRING: Cc1nc2cc3nc(-c4cccs4)cnc3cc2n1C
residual activity [%]: 96.2
--
MOLECULAR_STRING: COc1ccc(OC)c2c(=S)c3ccccc3[nH]c12
residual activity [%]: 94.3
